Target: T1, integrin αVβ3 (UniProt P06756 31-992; P05106 27-718)
T1 construct: Coated on the ELISA plate
T1 sequence (P06756 31-992, chain 1 of 2): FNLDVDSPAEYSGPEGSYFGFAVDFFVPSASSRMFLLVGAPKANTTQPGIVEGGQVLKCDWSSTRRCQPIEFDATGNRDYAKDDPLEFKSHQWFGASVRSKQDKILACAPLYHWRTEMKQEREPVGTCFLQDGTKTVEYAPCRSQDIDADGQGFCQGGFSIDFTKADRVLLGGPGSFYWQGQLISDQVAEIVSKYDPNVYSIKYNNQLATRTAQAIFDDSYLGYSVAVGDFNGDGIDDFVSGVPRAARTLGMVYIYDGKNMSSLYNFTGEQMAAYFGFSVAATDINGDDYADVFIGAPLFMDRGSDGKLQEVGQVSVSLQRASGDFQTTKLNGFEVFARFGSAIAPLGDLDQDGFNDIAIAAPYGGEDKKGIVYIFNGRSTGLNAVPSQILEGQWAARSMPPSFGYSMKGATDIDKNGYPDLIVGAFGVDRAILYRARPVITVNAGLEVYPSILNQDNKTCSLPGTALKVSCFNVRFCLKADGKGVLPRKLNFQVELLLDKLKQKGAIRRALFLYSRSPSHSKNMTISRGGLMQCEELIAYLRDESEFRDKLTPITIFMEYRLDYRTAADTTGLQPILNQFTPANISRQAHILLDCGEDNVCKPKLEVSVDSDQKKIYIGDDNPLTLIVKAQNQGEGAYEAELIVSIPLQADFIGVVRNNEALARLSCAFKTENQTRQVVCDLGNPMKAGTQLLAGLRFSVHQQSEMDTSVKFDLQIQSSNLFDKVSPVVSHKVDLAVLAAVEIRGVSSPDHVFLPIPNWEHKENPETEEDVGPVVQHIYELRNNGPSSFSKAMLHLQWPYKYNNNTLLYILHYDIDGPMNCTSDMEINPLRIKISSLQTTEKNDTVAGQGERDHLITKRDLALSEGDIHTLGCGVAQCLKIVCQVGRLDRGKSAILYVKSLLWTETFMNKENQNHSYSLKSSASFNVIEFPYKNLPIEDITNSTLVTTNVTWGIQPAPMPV
T1 sequence (P05106 27-718, chain 2 of 2): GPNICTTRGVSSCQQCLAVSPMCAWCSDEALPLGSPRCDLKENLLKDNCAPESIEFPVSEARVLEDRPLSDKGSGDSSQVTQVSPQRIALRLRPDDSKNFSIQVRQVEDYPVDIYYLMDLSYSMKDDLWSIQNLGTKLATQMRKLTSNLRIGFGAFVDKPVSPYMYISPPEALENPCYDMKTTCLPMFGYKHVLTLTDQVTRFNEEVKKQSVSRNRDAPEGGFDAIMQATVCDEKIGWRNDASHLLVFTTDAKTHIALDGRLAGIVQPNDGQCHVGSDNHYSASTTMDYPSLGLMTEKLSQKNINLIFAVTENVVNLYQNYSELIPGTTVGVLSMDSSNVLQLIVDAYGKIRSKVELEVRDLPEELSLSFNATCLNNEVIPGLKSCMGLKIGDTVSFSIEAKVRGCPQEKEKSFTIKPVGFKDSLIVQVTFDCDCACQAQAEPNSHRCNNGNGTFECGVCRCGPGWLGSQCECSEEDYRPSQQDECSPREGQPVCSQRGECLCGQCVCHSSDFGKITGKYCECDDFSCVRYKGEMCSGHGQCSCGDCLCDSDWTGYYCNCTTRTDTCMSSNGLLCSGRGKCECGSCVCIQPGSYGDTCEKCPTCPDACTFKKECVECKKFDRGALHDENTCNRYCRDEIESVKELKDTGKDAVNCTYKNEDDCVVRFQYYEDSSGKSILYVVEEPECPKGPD
Assay: ELISA, integrin coated, anti-MICA-HRP
Lab note: anything with signal/ng at or over 20 signal/ng counts as true (1); the rest go in false (0).

| BINDER | QUALITATIVE_LABEL |
| --- | --- |
| soluble MICA generated by pKK38 (loop 3.3 in loop 1) (designed binder) HHHHHHEPHSLRYNLTVLSWDGSVQSGFLTEVHLDGQPFLRCDRQKCRAKPQGQWAEDVLGNKTWDRETRDLTGNGKDLRMTLAHIKDQKEGLHSLQEIRVCEIHEDNSTRSSQHFYYDGELFLSQNLETEEWTMPQSSRAQTLAMNVRNFLKEDAMKTKTHYHAMHADCLQELRRYLKSGVVLRRTVPPMVNVTRVPRGDSDLTVTCRASGFYPWNITLSWRQDGVSLSHDTQQWGDVLPDGNGTYQTWVATRICQGEEQRFTCYMEHSGNHSTHPVPSGK | true (1) |
| soluble MICA generated by pKK42 (loop 5.3 in loop 1) (designed binder) HHHHHHEPHSLRYNLTVLSWDGSVQSGFLTEVHLDGQPFLRCDRQKCRAKPQGQWAEDVLGNKTWDRETRDLTGNGKDLRMTLAHIKDQKEGLHSLQEIRVCEIHEDNSTRSSQHFYYDGELFLSQNLETEEWTMPQSSRAQTLAMNVRNFLKEDAMKTKTHYHAMHADCLQELRRYLKSGVVLRRTVPPMVNVTHLARGDDLTYVTCRASGFYPWNITLSWRQDGVSLSHDTQQWGDVLPDGNGTYQTWVATRICQGEEQRFTCYMEHSGNHSTHPVPSGK | true (1) |
| soluble MICA generated by pKK49 (extended loop 3.3sp in loop 3) (designed binder) EPHSLRYNLTVLSWDGSVQSGFLTEVHLDGQPFLRCDRQKCRAKPQGQWAEDVLGNKTWDRETRDLTGNGKDLRMTLAHIKDQKEGLHSLQEIRVCEIHEDNSTRSSQHFYYDGELFLSQNLETKEWTMPQSSRAQTLAMNVRNFLKEDAMKTKTHYHAMHADCLQELRRYLKSGVVLRRTVPPMVNVTRSEASEGNITVTCRASGFYPWNITLSWRQDGVSLSHDTQQWGDVLPDGNGTYQTWVATRISGGSGGGSRVPRGDSDLTSGGSGGGCYMEHSGNHSTHPVPSGK | false (0) |
| soluble MICA generated by pKK45 (extended loop 3.3sp in loop 1) (designed binder) HHHHHHEPHSLRYNLTVLSWDGSVQSGFLTEVHLDGQPFLRCDRQKCRAKPQGQWAEDVLGNKTWDRETRDLTGNGKDLRMTLAHIKDQKEGLHSLQEIRVCEIHEDNSTRSSQHFYYDGELFLSQNLETEEWTMPQSSRAQTLAMNVRNFLKEDAMKTKTHYHAMHADCLQELRRYLKSGVVLRRTVPPMVNVTSGGSGGGSRVPRGDSDLTSGGSGGGVTCRASGFYPWNITLSWRQDGVSLSHDTQQWGDVLPDGNGTYQTWVATRICQGEEQRFTCYMEHSGNHSTHPVPSGK | false (0) |
| soluble MICA generated by pKK36 (loop 3.1 in loop 1) (designed binder) HHHHHHEPHSLRYNLTVLSWDGSVQSGFLTEVHLDGQPFLRCDRQKCRAKPQGQWAEDVLGNKTWDRETRDLTGNGKDLRMTLAHIKDQKEGLHSLQEIRVCEIHEDNSTRSSQHFYYDGELFLSQNLETEEWTMPQSSRAQTLAMNVRNFLKEDAMKTKTHYHAMHADCLQELRRYLKSGVVLRRTVPPMVNVTSRGDHPRTQVTCRASGFYPWNITLSWRQDGVSLSHDTQQWGDVLPDGNGTYQTWVATRICQGEEQRFTCYMEHSGNHSTHPVPSGK | false (0) |
